system_tested: Eukaryotic translation initiation factor 4E (Mus musculus)
Sequence (P63073 whole entry): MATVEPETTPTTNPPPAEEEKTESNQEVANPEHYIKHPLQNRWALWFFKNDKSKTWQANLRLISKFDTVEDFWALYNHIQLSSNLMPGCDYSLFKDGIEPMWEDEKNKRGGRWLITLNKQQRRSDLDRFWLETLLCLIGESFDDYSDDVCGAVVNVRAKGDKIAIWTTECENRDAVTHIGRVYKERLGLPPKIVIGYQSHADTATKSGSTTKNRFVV
experiment_description: blockers of eIF4G binding by eIF4E – biochemical, TR-FRET, dose response (AID 855);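 note: potency for disrupting eIF4E binding to eIF4GI seen as loss of FRET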
Type: functional
Active and inactive are the calls of the source. The rule behind the calls is not given here.
Could you please pick one outcome from this set? TRUE (active), FALSE (inactive)

Some entries whose results are on file:
INSERT INTO assay_data (compound, class) VALUES
  ('CCOC(=O)c1cc(-c2ccc(/C=C3/C(=O)NC(=O)C(C#N)=C3C)o2)ccc1Cl', 'TRUE'),
  ('Cc1ccccc1N=Nc1c(C)[nH]n(-c2ccccc2)c1=O', 'FALSE'),
  ('COc1cccc2c1NC(C(=O)O)C1CC=CC21 (centres undefined)', 'TRUE');

Below: the item to evaluate.
Input: Recorded test outcome, item COc1ccc(NC(C)C(=O)Nc2ccc(C#N)cc2)cc1Cl (centres undefined)
Output: FALSE

Cited source: ChEMBL document CHEMBL1201862
